tested_system: Kras and SOS1 (biotin-tagged human Kras loaded with GDP, His-tagged human SOS1) (Homo sapiens, UniProt P01116, G12D)
Construct: made in house; host or cells: E. coli (stated for Kras only)
Sequence (P01116 1-188 isoform P01116-2 G12D): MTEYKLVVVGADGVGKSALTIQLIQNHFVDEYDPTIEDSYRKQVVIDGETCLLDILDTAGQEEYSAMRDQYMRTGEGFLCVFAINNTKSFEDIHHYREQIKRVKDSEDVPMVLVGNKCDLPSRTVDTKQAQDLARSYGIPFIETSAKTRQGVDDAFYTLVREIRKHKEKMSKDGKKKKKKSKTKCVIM
assay_overview: Protein-protein interaction inhibition between Kras and SOS1 (KrasGl2D-SOS PPI) using AlphaScreen
Type: binding
run_conditions: AlphaScreen; biotin-tagged human Kras loaded with GDP, His-tagged human SOS1; read-out: KRAS G12D-SOS PPI IC50
Starred links: 1 amine or outer side, 2 acyl side, 3 side chain; linkers in the order of their positions; H or OH if unused. Positions of bridges follow the written chain, without caps; N, C: chain ends. Non-standard residues stand in square brackets, D forms with d. Residues, ends and D or L forms follow the SMILES beside them. *: point of attachment. hPhe(3-Cl-4-CF3) = N[C@@H](CCc1ccc(C(F)(F)F)c(Cl)c1)C(=O)O; NMePhe(4-CF3) = CN[C@@H](Cc1ccc(C(F)(F)F)cc1)C(=O)O; NMePhe(3-Cl) = CN[C@@H](Cc1cccc(Cl)c1)C(=O)O; NMedβ3hAla = C[C@H](CC(=O)[*:2])N(C)[*:1]; NMeGly(cPent) = CN[C@H](C(=O)O)C1CCCC1; Pro(4,4-F2) = O=C(O)[C@@H]1CC(F)(F)CN1; X10 = CC(C)=CC[C@H](N[*:1])C(=O)[*:2]; NMeCha = CN[C@@H](CC1CCCCC1)C(=O)O; Azetidine(3,3-F2) = FC1(F)CN(*)C1; NMeChg = CN[C@H](C(=O)O)C1CCCCC1; NMeD = CN[C@@H](CC(=O)O)C(=O)O; NMeL = CN[C@@H](CC(C)C)C(=O)O; NMeV = CN[C@H](C(=O)O)C(C)C; d(β3hA) = C[C@@H](N)CC(=O)O; NMeS = CN[C@@H](CO)C(=O)O; NMeA = CN[C@@H](C)C(=O)O; Piperidide = C1CCN(*)CC1; dNMeA = CN[C@H](C)C(=O)O; Ac5c = NC1(C(=O)O)CCCC1; Cyclobutyl = C1CC(*)C1; Sar = CNCC(=O)O; Propyl = CCC*
observable: IC50 (nM)
Give the value in nM but do not write nM after it.

Below: 4 compounds and their reported IC50.
compound: CC[C@H](C)[C@@H]1NC(=O)[C@H](CC(C)C)N(C)C(=O)C[C@@H](C(=O)N2CCCCC2)N(C)C(=O)[C@H](COC2CCC2)N(C)C(=O)C2(CCCC2)NC(=O)[C@@H]2CCCN2C(=O)[C@H](CCc2ccc(C(F)(F)F)c(Cl)c2)NC(=O)CN(C)C(=O)[C@H](CC2CCCCC2)N(C)C(=O)CN(C)C(=O)CN(C)C1=O [Compound 585] ([NMeL]I[Sar][Sar][NMeCha][Sar][hPhe(3-Cl-4-CF3)]P[Ac5c][NMeS](Cyclobutyl)[NMeD]-Piperidide; lactam N-11)
IC50, nM: 94
//
compound: CC[C@H](C)[C@@H]1NC(=O)[C@H](CC(C)C)N(C)C(=O)C[C@@H](C)NC(=O)[C@H](C2CCCC2)N(C)C(=O)C2(CCCC2)NC(=O)[C@@H]2CCCN2C(=O)[C@H](CCc2ccc(C(F)(F)F)c(Cl)c2)NC(=O)[C@@H](C)N(C)C(=O)[C@H](Cc2ccc(C(F)(F)F)cc2)N(C)C(=O)CN(C)C(=O)CN(C)C1=O [Compound 1542] (cyclo([Ac5c][NMeGly(cPent)][d(β3hA)][NMeL]I[Sar][Sar][NMePhe(4-CF3)][dNMeA][hPhe(3-Cl-4-CF3)]P))
IC50, nM: 170
//
compound: CC[C@H](C)[C@@H]1NC(=O)[C@H](CC(C)C)N(C)C(=O)C[C@@H](C)N(C)C(=O)[C@H](C(C)C)N(C)C(=O)C2(CCCC2)NC(=O)[C@@H]2CCCN2C(=O)[C@H](CCc2ccc(C(F)(F)F)c(Cl)c2)NC(=O)CN(C)C(=O)[C@H](Cc2cccc(Cl)c2)N(C)C(=O)CN(C)C(=O)CN(C)C1=O [Compound 1621] (cyclo([Ac5c][NMeV][NMedβ3hAla][NMeL]I[Sar][Sar][NMePhe(3-Cl)][Sar][hPhe(3-Cl-4-CF3)]P))
IC50, nM: 7.2
//
compound: CCCOC[C@@H]1NC(=O)[C@H](CC(=O)N2CC(F)(F)C2)N(C)C(=O)[C@H](CCc2ccc(C(F)(F)F)c(Cl)c2)NC(=O)CN(C)C(=O)[C@H](CC2CCCCC2)N(C)C(=O)CN(C)C(=O)CN(C)C(=O)[C@H]([C@@H](C)CC)NC(=O)[C@H](C)N(C)C(=O)C[C@@H](C(=O)N2CCCCC2)N(C)C(=O)[C@H](C(C)C)N(C)C1=O [Compound 129] ([NMeA]I[Sar][Sar][NMeCha][Sar][hPhe(3-Cl-4-CF3)][NMeD](Azetidine(3,3-F2))S(Propyl)[NMeV][NMeD]-Piperidide; lactam N-11)
IC50, nM: 11

Query string: Fill in reported IC50 for this entry: CC[C@H](C)[C@@H]1NC(=O)[C@H](CC(C)C)N(C)C(=O)C[C@@H](C)N(C)C(=O)[C@H](C2CCCC2)N(C)C(=O)C2(CCCC2)NC(=O)[C@@H]2CC(F)(F)CN2C(=O)[C@H](CCc2ccc(C(F)(F)F)c(Cl)c2)NC(=O)CN(C)C(=O)[C@H](Cc2ccc(C(F)(F)F)cc2)N(C)C(=O)CN(C)C(=O)CN(C)C1=O [Compound 611] (cyclo([Ac5c][NMeGly(cPent)][NMedβ3hAla][NMeL]I[Sar][Sar][NMePhe(4-CF3)][Sar][hPhe(3-Cl-4-CF3)][Pro(4,4-F2)]))
Result string: 3.3

Query string: Fill in reported IC50 for this entry: CC(C)=CC[C@@H]1NC(=O)[C@H](CC(C)C)N(C)C(=O)C[C@@H](C(=O)N2CCCCC2)N(C)C(=O)[C@H](C2CCCCC2)N(C)C(=O)C2(CCCC2)NC(=O)[C@@H]2CCCN2C(=O)[C@H](CCc2ccc(C(F)(F)F)c(Cl)c2)NC(=O)CN(C)C(=O)[C@H](CC2CCCCC2)N(C)C(=O)CN(C)C(=O)CN(C)C1=O [Compound 1134] ([NMeL][X10][Sar][Sar][NMeCha][Sar][hPhe(3-Cl-4-CF3)]P[Ac5c][NMeChg][NMeD]-Piperidide; lactam N-11)
Result string: 6

====

tested_system: Kras and SOS1 (biotin-tagged human Kras loaded with GDP, His-tagged human SOS1) (Homo sapiens, UniProt P01116, G12D)
Construct: made in house; host or cells: E. coli (stated for Kras only)
assay_overview: Protein-protein interaction inhibition between Kras and SOS1 (KrasGl2D-SOS PPI) using AlphaScreen
Format: binding
run_conditions: AlphaScreen; biotin-tagged human Kras loaded with GDP, His-tagged human SOS1; read-out: KRAS G12D-SOS PPI IC50
Positions of bridges follow the written chain, without caps; N, C: chain ends. Non-standard residues stand in square brackets, D forms with d. Residues, ends and D or L forms follow the SMILES beside them. *: point of attachment. hPhe(3,5-F2-4-CF3) = N[C@@H](CCc1cc(F)c(C(F)(F)F)c(F)c1)C(=O)O; hPhe(3-Cl-4-CF3) = N[C@@H](CCc1ccc(C(F)(F)F)c(Cl)c1)C(=O)O; NMeGly(cBu) = CN[C@H](C(=O)O)C1CCC1; NMeCha = CN[C@@H](CC1CCCCC1)C(=O)O; NMeChg = CN[C@H](C(=O)O)C1CCCCC1; NMeD = CN[C@@H](CC(=O)O)C(=O)O; NMeA = CN[C@@H](C)C(=O)O; Piperidide = C1CCN(*)CC1; Pyrrolidide = C1CCN(*)C1; Ac5c = NC1(C(=O)O)CCCC1; Sar = CNCC(=O)O
observable: IC50 (pM)
Give the value in pM but do not write pM after it.

molecule: CC[C@H](C)[C@@H]1NC(=O)[C@H](C)N(C)C(=O)C[C@@H](C(=O)N2CCCCC2)N(C)C(=O)[C@H](C2CCCCC2)N(C)C(=O)C2(CCCC2)NC(=O)[C@@H]2CCCN2C(=O)[C@H](CCc2ccc(C(F)(F)F)c(Cl)c2)NC(=O)CN(C)C(=O)[C@H](CC2CCCCC2)N(C)C(=O)CN(C)C(=O)CN(C)C1=O [Compound 1696] ([NMeA]I[Sar][Sar][NMeCha][Sar][hPhe(3-Cl-4-CF3)]P[Ac5c][NMeChg][NMeD]-Piperidide; lactam N-11)
display_unit: pM
IC50: 570

Query string: Fill in reported IC50 for this entry: CC[C@H](C)[C@@H]1NC(=O)[C@H](C2CCC2)N(C)C(=O)C[C@@H](C(=O)N2CCCC2)N(C)C(=O)[C@H](C2CCCCC2)N(C)C(=O)C2(CCCC2)NC(=O)[C@@H]2CCCN2C(=O)[C@H](CCc2cc(F)c(C(F)(F)F)c(F)c2)NC(=O)CN(C)C(=O)[C@H](CC2CCCCC2)N(C)C(=O)CN(C)C(=O)CN(C)C1=O [Compound 1275] ([NMeGly(cBu)]I[Sar][Sar][NMeCha][Sar][hPhe(3,5-F2-4-CF3)]P[Ac5c][NMeChg][NMeD]-Pyrrolidide; lactam N-11)
Result string: 650
